target_under_test: SARS-CoV-2 spike trimer protein (Severe acute respiratory syndrome coronavirus 2)
method_description: biochemical
Assay type: binding
Where no end group is shown, it is not given here.
measurement_kind: Kd (nM)
Give a bare numeral; the unit nM is implied.

Given item NFWISPKLAFALGGGS [Spep-1] , the value recorded as its Kd is 1.7

====

target_under_test: SARS-CoV-2 spike monomer protein (Severe acute respiratory syndrome coronavirus 2, UniProt P0DTC2)
method_description: biochemical
Format: binding
Where no end group is shown, it is not given here.
measurement_kind: Kd (nM)
Your answer is read as nM, so omit the unit and give the number.

The sequence listed as NFWISPKLAFALGGGS [Spep-1] shows Kd equal to 2.14
